These measurements were taken from paper PMC12703733.

format: cell-based; settings: Cell viability (%)
Bridge positions count the residues as written; N and C are the ends. Square brackets hold non-standard residues; d marks the D form. Peptide text beside a SMILES is read from it. Pro(cis-4-guanidino) = NC(N)=N[C@@H]1CN[C@H](C(=O)O)C1; Phe(4-guanidino) = N=C(N)Nc1ccc(C[C@H](N)C(=O)O)cc1
Reported viability at 2 h, 12.5 µM values follow for various compounds
Please give a number only; it is taken to be in %.

Check out these entries, answers already filled in.
Compound | viability at 2 h, 12.5 µM (%)
CC[C@H](C)[C@H](NC(=O)[C@H](CCCNC(=N)N)NC(=O)[C@H]1CCCCNC(=N)NCCCC[C@H](NC(=O)[C@H](Cc2ccccc2)NC(=O)[C@H](Cc2c[nH]c3ccccc23)NC(=O)[C@@H]2CCCN2C(=O)[C@@H](NC(=O)[C@@H](N)Cc2ccccc2)C(C)C)C(=O)N[C@@H](CCCCN)C(=O)N[C@@H](Cc2ccccc2)C(=O)N[C@H](CC(C)C)C(=O)N1)C(=O)N[C@@H](CC(C)C)C(N)=O [Peptide 12, FVPWF{KKFlk}RIL] | 56
CC[C@H](C)[C@H](NC(=O)[C@H](CCCNC(=N)N)NC(=O)[C@H]1CCC(=O)NCCCC[C@H](NC(=O)[C@H](Cc2ccccc2)NC(=O)[C@H](Cc2c[nH]c3ccccc23)NC(=O)[C@@H]2C[C@H](NC(=N)N)CN2C(=O)[C@@H](NC(=O)[C@@H](N)Cc2ccccc2)C(C)C)C(=O)N[C@@H](CCCCN)C(=O)N[C@@H](Cc2ccccc2)C(=O)N[C@H](CC(C)C)C(=O)N1)C(=O)N[C@@H](CC(C)C)C(N)=O [Peptide 7, FV(4-guanidino)PWF[KKFle]RIL] (H-FV[Pro(cis-4-guanidino)]WFKKF[dL][dE]RIL-NH2; lactam 6-10) | 80

viability at 2 h, 12.5 µM reported for this compound CC[C@H](C)[C@H](NC(=O)[C@H](CCCNC(=N)N)NC(=O)[C@H]1CCC(=O)NCCCC[C@H](NC(=O)[C@H](Cc2ccccc2)NC(=O)[C@H](Cc2c[nH]c3ccccc23)NC(=O)[C@@H]2CCCN2C(=O)[C@@H](NC(=O)[C@@H](N)Cc2ccc(NC(=N)N)cc2)C(C)C)C(=O)N[C@@H](CCCCN)C(=O)N[C@@H](Cc2ccccc2)C(=O)N[C@H](CC(C)C)C(=O)N1)C(=O)N[C@@H](CC(C)C)C(N)=O [Peptide 6, (p-guanidino)FVPWF[KKFle]RIL] (H-[Phe(4-guanidino)]VPWFKKF[dL][dE]RIL-NH2; lactam 6-10) : 114
